Target: mouse TMEM16A mutant R515A (Mus musculus, UniProt Q8BHY3, R515A)
Construct: expressed in transfected cells; host or cells: HEK293T
Sequence (Q8BHY3 1-960 R515A): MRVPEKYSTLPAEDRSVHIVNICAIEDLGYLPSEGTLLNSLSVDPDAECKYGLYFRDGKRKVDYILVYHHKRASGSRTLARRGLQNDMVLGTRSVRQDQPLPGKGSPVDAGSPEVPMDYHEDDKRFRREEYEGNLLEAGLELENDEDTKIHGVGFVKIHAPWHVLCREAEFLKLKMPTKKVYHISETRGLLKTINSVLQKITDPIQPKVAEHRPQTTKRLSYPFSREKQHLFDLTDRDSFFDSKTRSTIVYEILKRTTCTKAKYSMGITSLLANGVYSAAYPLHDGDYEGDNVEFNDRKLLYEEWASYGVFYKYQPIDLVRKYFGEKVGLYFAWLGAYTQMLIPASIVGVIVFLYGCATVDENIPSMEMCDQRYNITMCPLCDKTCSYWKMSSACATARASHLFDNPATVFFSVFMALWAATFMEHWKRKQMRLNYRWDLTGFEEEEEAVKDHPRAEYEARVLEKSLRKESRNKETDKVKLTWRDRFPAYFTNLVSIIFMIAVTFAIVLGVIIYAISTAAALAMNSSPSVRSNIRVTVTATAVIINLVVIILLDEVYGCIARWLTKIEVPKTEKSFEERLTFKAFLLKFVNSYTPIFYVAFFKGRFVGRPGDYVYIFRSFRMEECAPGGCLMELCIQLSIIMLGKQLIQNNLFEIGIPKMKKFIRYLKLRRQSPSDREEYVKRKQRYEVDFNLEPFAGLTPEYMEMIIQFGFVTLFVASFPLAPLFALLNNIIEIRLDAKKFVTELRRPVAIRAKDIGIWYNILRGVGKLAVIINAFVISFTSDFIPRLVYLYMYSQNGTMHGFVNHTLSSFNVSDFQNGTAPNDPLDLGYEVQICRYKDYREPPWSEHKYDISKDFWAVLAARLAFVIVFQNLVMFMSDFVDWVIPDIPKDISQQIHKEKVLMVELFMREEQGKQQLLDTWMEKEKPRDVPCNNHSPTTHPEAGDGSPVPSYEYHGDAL
Assay: Inside-out patch recording of 1PBC block, mutant R515A
Type: cell-based
Conditions: R515A; V -60 mV

chemical-string	unit-descriptor	IC50
N#Cc1c(C(F)(F)F)cc(O)n2c1nc1ccccc12	µM	153

----------
Molecular target: mouse TMEM16A mutant N546A (Mus musculus, UniProt Q8BHY3, N546A)
Construct: expressed in transfected cells; host or cells: HEK293T
Assay: Inside-out patch recording of 1PBC block, mutant N546A
Type: cell-based
Details: -100 mV; 2 µM Ca2+
Procedure: HEK293T cells (ATCC CRL-1573) were maintained in Dulbecco’s modified Eagle’s medium (DMEM; Sigma-Aldrich) supplemented with 10 U ml^−1 penicillin, 0.1 mg ml^−1 streptomycin (Sigma-Aldrich), 2 mM L-glutamine (Sigma-Aldrich), and 10% FBS (Sigma-Aldrich) in a humidified atmosphere containing 5% CO2 at 37 °C. […]
pIC50: −log10 of the molar value.
measured-attribute: pIC50

chemical-string	assayed-target	reported-measurement
N#Cc1c(C(F)(F)F)cc(O)n2c1nc1ccccc12	mouse TMEM16A mutant N546A (Mus musculus, UniProt Q8BHY3, N546A)	5.66
